Every entry's value here was drawn from patent US20250388565A1.

Reported DC50 is given for each of the following compounds.
- target: ERα protein (HiBiT-tagged) in ESR1_HiBiT KI MCF7 cells (Homo sapiens)
- Sequence (P03372 whole entry): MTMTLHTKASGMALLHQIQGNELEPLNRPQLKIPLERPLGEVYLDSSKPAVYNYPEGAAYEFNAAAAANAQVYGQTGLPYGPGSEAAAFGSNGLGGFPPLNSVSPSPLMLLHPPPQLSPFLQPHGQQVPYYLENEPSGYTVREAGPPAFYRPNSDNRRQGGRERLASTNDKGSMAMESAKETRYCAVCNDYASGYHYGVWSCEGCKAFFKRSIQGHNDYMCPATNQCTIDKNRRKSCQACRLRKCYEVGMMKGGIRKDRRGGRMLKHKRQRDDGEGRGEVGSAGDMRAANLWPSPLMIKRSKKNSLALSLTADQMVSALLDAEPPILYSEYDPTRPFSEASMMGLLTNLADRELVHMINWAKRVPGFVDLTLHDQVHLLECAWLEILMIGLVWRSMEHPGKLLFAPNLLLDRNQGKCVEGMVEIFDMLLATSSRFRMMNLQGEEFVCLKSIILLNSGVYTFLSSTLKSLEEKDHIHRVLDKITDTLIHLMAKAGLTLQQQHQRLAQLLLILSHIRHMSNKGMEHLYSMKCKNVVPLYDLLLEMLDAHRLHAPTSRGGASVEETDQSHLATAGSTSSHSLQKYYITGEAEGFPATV
- protocol: Nano Glo HiBiT Lytic Degradation Assay
- Assay type: cell-based
- run-conditions: 6 hours with compound, 14-point dose response 1:3, bell-shape curve fit, half-maximal effect of first Hill model, read-out: MCF7 ESR1 HiBiT - (DC50)
Numbers only here, please. The scale is nM.

Some compounds with recorded DC50:
compound: O=C1CC[C@H](N2Cc3cc(N4CCN(CC5CCN(c6ccc([C@H]7c8ccc(O)cc8CC[C@]78CCc7ccccc78)cc6)CC5)CC4)ccc3C2=O)C(=O)N1
attribute-measured: DC50
units: nM
reported-value: 98
--
compound: O=C1CCN(c2ccc(N3CCC4(CCN(CC5CCN(c6ccc([C@@H]7c8ccc(O)cc8CO[C@@H]7c7ccccc7)cc6)CC5)C4)CC3)cc2)C(=O)N1
attribute-measured: DC50
units: nM
reported-value: 0.42

Input line: I'd like to know its DC50. The compound in question is O=C1CC[C@H](N2Cc3cc(N4CCN(CC5CCN(c6ccc([C@H]7c8ccc(O)cc8CO[C@@H]7c7ccc(O)cc7)cc6)CC5)CC4)ccc3C2=O)C(=O)N1 (single isomer, unassigned)
Output line: 0.16

Input line: I'd like to know its DC50. The compound in question is Cn1c(=O)n(C2CCC(=O)NC2=O)c2ccc(N3CCN(CC4CCN(c5ccc([C@@H]6c7ccc(O)cc7CC[C@@H]6c6ccccc6)cc5)CC4)CC3)cc21 (some centres unmarked)
Output line: 0.4
